# Assay procedure: Intrinsic clearance in mouse hepatocytes assessed per 10^6 cells
# Format: ADME, cell-based, Hepatocyte
# Test context: read-out: CLH
Measured parameter: hepatocyte CLint

O=c1ccc2ccc(O)cc2o1 [UMBELLIFERONE]
116 µL/min/1e6 cells
CCOc1ccc2ccc(=O)oc2c1
74 µL/min/1e6 cells

Let us move to another entry and its hepatocyte CLint.
Need hepatocyte CLint of C[C@H]1COCCN1c1nc(-c2cnc(N)cc2C(F)F)nc(N2CCOCC2)n1 , thanks.
11 µL/min/1e6 cells

###

# Assay procedure: Toxicity in po dosed male Wistar rat
# Format: organism-based
# Test context: in vivo
Measured parameter: NOAEL (mg/kg/day)
Answer format: numeric, mg/kg/day implied, no suffix.

Need NOAEL of C[C@H]1COCCN1c1nc(-c2cnc(N)cc2C(F)F)nc(N2CCOCC2)n1 , thanks.
1

###

# Assay procedure: Inhibition of Class 1 PI3K/mTOR in human A2058 cells assessed as reduction in Akt phosphorylation at Ser473 residue incubated for 1 hr by InCell Western assay
# Format: cell-based
# Test context: A2058, 1 h
Binarize IC50 at 100 nM; below is label 1, at or above is label 0.

Would you please look over these solved cases?
C[C@H]1COCCN1c1nc(-c2cnc(N)nc2C(F)F)cc(N2CCOCC2)n1
label 1
C[C@@H]1COC[C@@H](C)N1c1nc(-c2cnc(N)cc2C(F)(F)F)nc(N2[C@H](C)COC[C@H]2C)n1
label 0
C[C@@H]1COCCN1c1nc(-c2cnc(N)cc2C(F)(F)F)nc(N2CCOCC2)n1
label 0
C[C@H]1COCCN1c1nc(-c2cnc(N)nc2C(F)F)nc(N2CCOCC2)n1
label 1
C[C@@H]1COC[C@H](C)N1c1nc(-c2cnc(N)cc2C(F)(F)F)nc(N2CCOCC2)n1
label 0

Does the reported IC50 of the following compound sit strictly below 100 nM? C[C@@H]1COCCN1c1nc(-c2cnc(N)cc2C(F)(F)F)nc(N2CCOC[C@H]2C)n1
label 0

Does the reported IC50 of the following compound sit strictly below 100 nM? C[C@H]1COCCN1c1nc(-c2cnc(N)cc2C(F)(F)F)nc(N2CCOC[C@@H]2C)n1
label 0

Does the reported IC50 of the following compound sit strictly below 100 nM? C[C@@H]1COC[C@@H](C)N1c1nc(-c2cnc(N)cc2C(F)(F)F)nc(N2CCOCC2)n1
label 0

Does the reported IC50 of the following compound sit strictly below 100 nM? C[C@H]1COCCN1c1cc(-c2cnc(N)cc2C(F)F)nc(N2CCOCC2)n1
label 0

###

# Assay procedure: Half-life in dog hepatocytes
# Format: ADME, cell-based, Canis lupus familiaris, Hepatocyte
The entries below are paired with their reported half-life.
Answer format: numeric, min implied, no suffix.

Need half-life of C[C@H]1COCCN1c1nc(-c2cnc(N)cc2C(F)F)nc(N2CCOCC2)n1 , thanks.
142

Need half-life of CCOc1ccc2ccc(=O)oc2c1 , thanks.
8.49

Need half-life of O=c1ccc2ccc(O)cc2o1 [UMBELLIFERONE] , thanks.
10.2

###

# Assay procedure: Half-life clearance in human hepatocytes
# Type: ADME, cell-based, Hepatocyte
The entries below are paired with their reported half-life.
Answer format: numeric, h implied, no suffix.

Recorded results for 2 compounds are shown here.
C[C@H]1COCCN1c1nc(-c2cnc(N)cc2C(F)F)nc(N2CCOCC2)n1
4.17
CCOc1ccc2ccc(=O)oc2c1
1.17

Let us move to another entry and its half-life.
Need half-life of O=c1ccc2ccc(O)cc2o1 , thanks.
0.352
